Tested on: OVCAR-8 ovarian
Assay: NCI tumour cell line growth inhibition, 48 h
# TGI annotations

Sample records with TGI:
molecule="C=C(C)C(=O)O[C@H]1C[C@@]23O[C@@H]2CCC(=C[C@H]2OC(=O)C(=C)[C@H]12)COC3O (some centres not stated)" obs_value="> 100 µM"
molecule="NC(CCCC(N)P(=O)(O)c1ccccc1)P(=O)(O)c1ccccc1 (configuration not stated)" obs_value="> 261 µM"
molecule=CC1=Nc2nc(Cl)cn2C(=O)C1(Cl)Cl obs_value="> 10 µM"
molecule=CCOP(=O)(OCC)/C(C#N)=C/c1cn(C)cn1 obs_value="> 100 µM"
molecule=Cc1c(Cl)nc(Nc2nc3ccccc3[nH]2)nc1Cl obs_value="> 100 µM"
molecule=O=S(=O)(c1ccccc1)n1c2ccc(Br)cc2c2nc3ccccc3nc21 obs_value="> 100 µM"
molecule="CCCN1C(=O)CC(C)N(Cc2ccccc2Cl)C1=S (configuration not stated)" obs_value="72.1 µM"
molecule=FC(F)(F)c1nc2nc(Cl)c(Cl)nc2n1CCCN1CCOCC1 obs_value="> 100 µM"
molecule=O=S(=O)(Nc1ccccc1Cl)c1ccc(-c2cnc(C3CC3)o2)cc1 obs_value="> 100 µM"
molecule="CCOC(=O)C1N(S(=O)(=O)c2ccc(C)cc2)CCC12c1ccccc1N(C(C)=O)C2c1ccc(OC)c(OC)c1 (configuration not stated)" obs_value="> 100 µM"

Find the measured TGI: item C[N-]c1nnnn1C.[Au+].c1ccc([PH+](c2ccccc2)c2ccccc2)cc1 , target or system OVCAR-8 ovarian.
14.2 µM

Find the measured TGI: item OC(c1cc2ccccc2o1)c1cc2ccccc2s1 (configuration not stated) , target or system OVCAR-8 ovarian.
> 10 µM

Find the measured TGI: item Cc1ccc(C)c2c1C(O)(C#Cc1ccccc1)c1ccccc1C2(O)C#Cc1ccccc1 (configuration not stated) , target or system OVCAR-8 ovarian.
> 100 µM

Find the measured TGI: item CC(=O)OCC1OC(n2c(-c3ccc(Cl)cc3)ccc(C#N)c2=S)C(OC(C)=O)C(OC(C)=O)C1OC(C)=O (configuration not stated) , target or system OVCAR-8 ovarian.
> 100 µM

Find the measured TGI: item O=C(O)c1cc2ccccc2c(N=Nc2ccc(S(=O)(=O)Nc3nccs3)cc2)c1O , target or system OVCAR-8 ovarian.
> 100 µM

Find the measured TGI: item N#CC1=C(N)n2c(s/c(=C\c3ccc(Cl)cc3)c2=O)=C(c2nc3ccccc3[nH]2)C1c1ccc(Cl)cc1 (configuration not stated) , target or system OVCAR-8 ovarian.
3.78 µM

Find the measured TGI: item O=C(O)CCCCCCC[C@H]1S[C@H]1CCCCCCO , target or system OVCAR-8 ovarian.
> 100 µM

Find the measured TGI: item O=c1nc(/C=C/c2ccccc2Cl)cc2n1CCN2CCO , target or system OVCAR-8 ovarian.
> 100 µM

###

# GI50 annotations
Tested on: ACHN renal
Assay: NCI tumour cell line growth inhibition, 48 h

Sample records with GI50:
line_notation=O=C(CO[N+](=O)[O-])Nc1ccc(C(=O)/C=C/c2ccc(Cl)cc2)cc1 obs_value="3.3 µM"
line_notation=O=c1c(Oc2ccc(F)cc2F)cc2cnc(NC3CCOCC3)nc2n1CCCO obs_value="> 25 µM"

# get_value(readout='GI50', item= CCOC(=O)N1CCN(c2nc(Nc3cc(C)[nH]n3)c3ccccc3n2)CC1 )
0.707 µM

###

# TGI annotations
System: SNB-19 CNS
Experiment: NCI tumour cell line growth inhibition, 48 h

Sample records with TGI:
compound=C=C(c1ccc2nc(NC(=O)OC)[nH]c2c1)c1cccs1 obs_value="> 100 µM"
compound="COc1cc(C2c3cc4c(cc3[C@@H](Nc3ccccc3)C3COC[C@H]23)OCO4)cc(OC)c1O (stereo partly specified)" obs_value="> 100 µM"
compound="Nc1ccc(C2=NN(c3ccccc3)C(c3ccc(Cl)cc3)C2)cc1 (stereo unspecified)" obs_value="14.1 µM"
compound="CC(C)(C)N=NNc1cn(C2OC(CO)C(O)C2O)c(=O)[nH]c1=O (stereo unspecified)" obs_value="> 100 µM"
compound="CCN(CC)CC1CCCCN1CC(=O)N1c2ccccc2NC(=O)CC1C (stereo unspecified)" obs_value="> 100 µM"
compound="COC(=O)N(C(=O)OC)C(C(=O)O)C(C)C (stereo unspecified)" obs_value="> 100 µM"
compound=Cc1ccc(S(=O)(=O)NC(=O)C2C(=O)CC3(CCCCC3)CC2=O)cc1 obs_value="> 100 µM"
compound=c1cc(N(CCn2cccn2)CCn2cccn2)cc(N(CCn2cccn2)CCn2cccn2)c1 obs_value="> 100 µM"
compound=S=C(Nc1ccc(Br)cc1)Nc1ccc(Br)cc1 obs_value="> 100 µM"
compound=COC(=O)CCC(=O)NC1=C(Nc2ccc(OC)cc2)C(=O)c2ccccc2C1=O obs_value="37.7 µM"

# get_value(readout='TGI', item= COC(=O)C1Cc2c(OC)ccc(OC)c2CC(C(=O)OC)C1=O (stereo unspecified) )
> 100 µM

# get_value(readout='TGI', item= O=C(c1ccccc1)N1CCN(C(=S)N(C(=O)c2ccccc2)c2ccccc2)C1=S )
26.3 µM

# get_value(readout='TGI', item= COc1ccc2nc3c([N+](=O)[O-])ccc4c3c(c2c1)NCCN4CCO )
3.08 µM

# get_value(readout='TGI', item= COc1cc(OC)cc(N(CCNC(C)C)c2ccc3ncc(-c4cnn(C)c4)nc3c2)c1 )
24.9 µM

# get_value(readout='TGI', item= O=S(=O)(O)c1cc(O)c2c(N=Cc3ccccc3O)cc(S(=O)(=O)O)cc2c1 )
> 100 µM

# get_value(readout='TGI', item= COC(=O)/C=C\n1c(C)cc(=O)[nH]c1=O )
> 100 µM

# get_value(readout='TGI', item= CCOC(=O)C1(C/C=C(/C)Cl)CCCC1=O (stereo unspecified) )
> 100 µM

# get_value(readout='TGI', item= FC(F)(F)c1nc2nc(Cl)c(Cl)nc2n1CCCN1CCOCC1 )
> 100 µM

# get_value(readout='TGI', item= [Cl-].[O-]/N=C(\c1ccccc1)c1ccccn1.[O-]/N=C(\c1ccccc1)c1ccccn1.[O-]/N=C(\c1ccccc1)c1ccccn1.[Sm+3] )
> 100 µM

# get_value(readout='TGI', item= N[C@H](C(=O)O)[C@H]1ON=C(Cl)[C@@H]1O )
> 550 µM

# get_value(readout='TGI', item= COc1cccc(-c2nc3sccn3c2-c2ccnc(NCCCNS(=O)(=O)c3cccc(F)c3)c2)c1 )
> 100 µM

# get_value(readout='TGI', item= C[C@]12CCC(=O)C=C1CC[C@@H]1[C@@H]2[C@@H](O)C[C@@]2(C)[C@H]1CC[C@]2(O)C(=O)COC(=O)COCC(=O)O )
> 100 µM

# get_value(readout='TGI', item= O=C1CCC2(CC1CC(Sc1ccccc1)Sc1ccccc1)OCCO2 (stereo unspecified) )
> 100 µM

# get_value(readout='TGI', item= CCC[CH2][Sn]1([CH2]CCC)[O]CC(Cc2ccccc2)[O]1 (stereo unspecified) )
11.7 µM

# get_value(readout='TGI', item= Cc1ccc(SC(CCC(Sc2ccc(C)cc2)Sc2ccc(C)cc2)Sc2ccc(C)cc2)cc1 )
> 100 µM

# get_value(readout='TGI', item= CCc1cccc(C)c1NC(=O)c1sc2nc3c(cc2c1N)CCCCC3 )
> 100 µM

###

System: UO-31 renal
Experiment: NCI tumour cell line growth inhibition, 48 h
endpoint.name: TGI (µM)
The answer is to be given in µM; state only the numeric part.

# get_value(readout='TGI', item= COC(=O)c1c(O)ccc2c1c1c(n2Cc2ccccc2Cl)C(=O)c2ccccc2C1=O )
24.8

# get_value(readout='TGI', item= Cc1nc(Nc2ccc(Cl)cc2)sc1C(=O)NNc1ccc([N+](=O)[O-])cc1[N+](=O)[O-] )
27.2

# get_value(readout='TGI', item= C[N-]c1nnnn1C.[Au+].c1ccc([PH+](c2ccccc2)c2ccccc2)cc1 )
25.3

###

Test system: LXFL 529 NSCLC
Test: NCI tumour cell line growth inhibition, 48 h
# TGI annotations

Sample records with TGI:
molecule="COCCCNC(=O)C1C(=O)N(CCCOC)C(=O)/C1=N\\N (stereo unspecified)" obs_value="> 100 µM"
molecule="CCC[CH2][Sn]1([CH2]CCC)[O]CC(Cc2ccccc2)[O]1 (stereo unspecified)" obs_value="2.39 µM"
molecule="Cc1[nH]c2ccccc2c1C(=O)CC1(O)C(=O)Nc2ccccc21 (stereo unspecified)" obs_value="> 100 µM"
molecule="O=c1[nH]c(=O)n(C2OC(COP(=O)(O)OP(=O)(O)OC3OC(CO)C(O)C(O)C3O)C(O)C2O)cc1F (stereo unspecified)" obs_value="> 100 µM"
molecule="CCOC(=O)C1N(S(=O)(=O)c2ccc(C)cc2)CCC12c1ccccc1N(C(C)=O)C2c1ccc(OC)c(OC)c1 (stereo unspecified)" obs_value="> 100 µM"

# get_value(readout='TGI', item= C=C(COC(C)=O)CC(OC(C)=O)c1ccccc1 (stereo unspecified) )
> 100 µM

# get_value(readout='TGI', item= COc1ccc(-c2cc(=O)c3cc4c(cc3[nH]2)OCO4)cc1OC )
> 100 µM

# get_value(readout='TGI', item= CN1CCCC2(CCCc3ccccc32)C1 (stereo unspecified) )
> 100 µM
